This section presents compounds with their documented Kd values.
STUDY TARGET: GDP-bound KRAS wild-type protein (Homo sapiens, UniProt P01116)
ASSAY SUMMARY: Binding to KRAS by surface plasmon resonance (SPR), Single Cycle Kinetics
EXPERIMENTAL CONTEXT: SPR, Single Cycle Kinetics; GDP-bound KRAS wild-type protein
Give the value, in units of nM, as a plain number.

{"columns": ["COMPOUND", "UNITS OF MEASURE", "MEASURED"],
 "data": [
  ["CCO[C@@H]1C[C@H]2C(=O)NC3(CCC3)C(=O)N(C)[C@@H](C(CC)CC)C(=O)N(C)C(C(C)C)CC(=O)N(C)[C@@H](CC)C(=O)N[C@@H]([C@@H](C)CC)C(=O)N(C)CC(=O)N(C)[C@H]3C/C=C\\CCN(C3=O)[C@@H](Cc3ccc(C(F)(F)F)cc3)C(=O)N(C)CC(=O)N[C@@H](CCc3cc(F)c(C(F)(F)F)c(F)c3)C(=O)N2C1 (some centres unmarked)", "nM", 1.8]
]}

For the compound `CCO[C@@H]1C[C@H]2C(=O)NC3(CCC3)C(=O)N(C)[C@@H](C3CCCC3)C(=O)N(CC)[C@H](C(=O)N3CCOCC3)CC(=O)N(C)[C@@H](CC)C(=O)N[C@@H]([C@@H](C)CC)C(=O)N(C)CC(=O)N(C)[C@H]3CCCCCN(C3=O)[C@@H](Cc3ccc(F)cc3)C(=O)N(C)CC(=O)N[C@@H](CCc3cc(F)c(C(F)(F)F)c(F)c3)C(=O)N2C1` , what Kd is on record?
0.79

###

A collection of compounds and their measured IC50
Test system: human lung cancer strain NCI-H441
ASSAY SUMMARY: cells
EXPERIMENTAL CONTEXT: NCI-H441, 96 h, read-out: NCI-H441 IC50 (nM)

{"columns": ["COMPOUND", "IC50"],
 "data": [
  ["CC[C@H](C)[C@@H]1NC(=O)[C@H](CC2CCC2)N(C)C(=O)C[C@@H](C(=O)N(C)C)N(C)C(=O)[C@H](C2CCCC2)N(C)C(=O)C2(CCCC2)NC(=O)[C@@H]2CCCN2C(=O)[C@H](CCc2ccc(C(F)(F)F)c(Cl)c2)NC(=O)CN(C)C(=O)[C@H](Cc2ccc(C(F)(F)F)cc2)N2C[C@H](C)CC[C@@H](C2=O)N(C)C(=O)CN(C)C1=O [PP1342]", "5 nM"],
  ["CCO[C@@H]1C[C@H]2C(=O)NC3(CCC3)C(=O)N(C)[C@@H](C3CCCC3)C(=O)N(C)[C@H](C(=O)N3CCOCC3)CC(=O)N(C)[C@@H](CC(C)C)C(=O)N[C@@H]([C@@H](C)CC)C(=O)N(C)CC(=O)N(C)[C@H]3C/C=C\\CCN(C3=O)[C@@H](Cc3ccc(C)cc3)C(=O)N(C)CC(=O)N[C@@H](CCc3cc(F)c(C(F)(F)F)c(F)c3)C(=O)N2C1 [PP1415]", "9.5 nM"]
]}

Tell me the measured IC50 of CCO[C@@H]1C[C@H]2C(=O)NC3(CCC3)C(=O)N(C)[C@@H](C3CCCC3)C(=O)N(C)[C@H](C(=O)N3CCOCC3)CC(=O)N(C)[C@@H](CC(C)C)C(=O)N[C@@H]([C@@H](C)CC)C(=O)N(C)CC(=O)N(C)[C@H]3C/C=C\CCN(C3=O)[C@@H](Cc3ccc(C(F)(F)F)cc3)C(=O)N(C)CC(=O)N[C@@H](CCc3cc(F)c(C(F)(F)F)c(F)c3)C(=O)N2C1 [PP1282] , please.
12.3 nM

###

Tested on: human lung cancer strain NCI-H441
EXPERIMENTAL CONTEXT: read-out: NCI-H441 IC50; NCI-H441 cells, 4 days, CellTiter-Glo
VALUE TYPE: IC50 (nM)
// units = nM; emit number, no label

// solved cases for IC50 follow
{"columns": ["MOLECULE", "IC50 [nM]"],
 "data": [
  ["CC[C@H](C)[C@@H]1NC(=O)[C@H](CC2CC2)N(C)C(=O)C[C@@H](C(=O)N(C)C)N(C)C(=O)[C@H](C2CCCC2)N(C)C(=O)C2(CCCC2)NC(=O)[C@@H]2C[C@H](C)CN2C(=O)[C@H](CCc2cc(F)c(C(F)(F)F)c(F)c2)NC(=O)CN(C)C(=O)[C@H](Cc2ccc(C(F)(F)F)cc2)N2CC/C=C\\C[C@@H](C2=O)N(C)C(=O)CN(C)C1=O [PP1511]", 13.7],
  ["CC[C@H](C)[C@@H]1NC(=O)[C@H](CC2CC2)N(C)C(=O)C[C@@H](C(=O)N2CCCC2)N(C)C(=O)[C@H](C2CCCC2)N(C)C(=O)C2(CCC2)NC(=O)[C@@H]2C[C@H](C)CN2C(=O)[C@H](CCc2cc(F)c(C(F)(F)F)c(F)c2)NC(=O)CN(C)C(=O)[C@H](Cc2ccc(C(F)(F)F)cc2)N2CC/C=C\\C[C@@H](C2=O)N(C)C(=O)CN(C)C1=O [PP1510]", 34.5],
  ["CCO[C@@H]1C[C@H]2C(=O)NC3(CCC3)C(=O)N(C)[C@@H](C3CCCC3)C(=O)N(C)[C@H](C(=O)N(C)C)CC(=O)N(C)[C@@H](CC3CCCC3)C(=O)N[C@@H]([C@@H](C)CC)C(=O)N(C)CC(=O)N(C)[C@H]3C/C=C\\CCN(C3=O)[C@@H](Cc3ccc(C(F)(F)F)cc3)C(=O)N(C)CC(=O)N[C@@H](CCc3ccc(C(F)(F)F)c(OC)c3)C(=O)N2C1 [PP1248]", 7.3]
]}

Name the reported IC50 value associated with the molecule CCO[C@@H]1C[C@H]2C(=O)NC3(CCC3)C(=O)N(C)[C@@H](C3CCCC3)C(=O)N(C)[C@H](C(=O)N(C)C)CC(=O)N(C)[C@@H](CC3CC3)C(=O)N[C@@H]([C@@H](C)CC)C(=O)N(C)CC(=O)N(C)[C@H]3C/C=C\CCN(C3=O)[C@@H](CC3CCC(F)(F)CC3)C(=O)N(C)CC(=O)N[C@@H](CCc3cc(F)c(C(F)(F)F)c(F)c3)C(=O)N2C1 [PP1447]
28.9

Suppose we examine the molecule CC[C@H](C)[C@@H]1NC(=O)[C@H](CC)N(C)C(=O)C[C@@H](C(=O)N(C)C)N(C)C(=O)[C@H](C2CCCC2)N(C)C(=O)C2(CCC2)NC(=O)[C@@H]2C[C@@H](C(F)(F)F)CN2C(=O)[C@H](CCc2cc(F)c(C(F)(F)F)c(F)c2)NC(=O)CN(C)C(=O)[C@H](CC2CCC(F)(F)CC2)N2CC/C=C\C[C@@H](C2=O)N(C)C(=O)CN(C)C1=O [PP1451] ; what IC50 value has been reported?
61.1

Any idea what its IC50 is? The molecule is CCO[C@@H]1C[C@H]2C(=O)NC3(CCC3)C(=O)N(C)[C@@H](C3CCCC3)C(=O)N(C)[C@H](C(=O)N(C)C)CC(=O)N(C)[C@@H](CC3CCCC3)C(=O)N[C@@H]([C@@H](C)CC)C(=O)N(C)CC(=O)N(C)[C@H]3C/C=C\CCN(C3=O)[C@@H](Cc3ccc(C(F)(F)F)cc3)C(=O)N(C)CC(=O)N[C@@H](CCc3ccc4sccc4c3)C(=O)N2C1 [PP1261]
76.8

###

Test system: human lung cancer strain NCI-H441
ASSAY SUMMARY: cells
EXPERIMENTAL CONTEXT: NCI-H441, 96 h, read-out: NCI-H441 IC50 (nM)
VALUE TYPE: log10 IC50 (log10 of the value in nM)
log10 IC50, nM

Some compounds with recorded log10 IC50:
{"columns": ["COMPOUND", "log10 IC50"],
 "data": [
  ["CC[C@H](C)[C@@H]1NC(=O)[C@H](CC(C)C)N(C)C(=O)C[C@@H](C(=O)N2CCOCC2)N(C)C(=O)[C@H](C2CCCC2)N(C)C(=O)C2(CCC2)NC(=O)[C@@H]2CCCN2C(=O)[C@H](CCc2cc(F)c(C(F)(F)F)c(F)c2)NC(=O)CN(C)C(=O)[C@H](Cc2ccc(C(F)(F)F)cc2)N2C[C@H](C)[C@H](C)C[C@@H](C2=O)N(C)C(=O)[C@@H]2CCN2C1=O [PP1367]", 1.47],
  ["CCO[C@@H]1C[C@H]2C(=O)NC3(CCC3)C(=O)N(C)[C@@H](C(CC)CC)C(=O)N(C)[C@H](C(=O)N(C)C)CC(=O)N(C)[C@@H](CC3CCCC3)C(=O)N[C@@H]([C@@H](C)CC)C(=O)N(C)CC(=O)N(C)[C@H]3C/C=C\\CCN(C3=O)[C@@H](CC3CCCCC3)C(=O)N(C)CC(=O)N[C@@H](CCc3cc(F)c(C(F)(F)F)c(F)c3)C(=O)N2C1 [PP1430]", 1.85],
  ["CCO[C@@H]1C[C@H]2C(=O)NC3(CCC3)C(=O)N(C)[C@@H](C3CCCC3)C(=O)N(C)[C@H](C(=O)N(C)C)CC(=O)N(C)[C@@H](CC3CCCC3)C(=O)N[C@@H]([C@@H](C)CC)C(=O)N(C)CC(=O)N(C)[C@H]3C/C=C\\CCN(C3=O)[C@@H](Cc3ccc(C)cc3)C(=O)N(C)CC(=O)N[C@@H](CCc3ccc(Cl)c(Cl)c3)C(=O)N2C1 [PP1487]", 1.67],
  ["CCO[C@@H]1C[C@H]2C(=O)NC3(CCC3)C(=O)N(C)[C@@H](C3CCCC3)C(=O)N(C)[C@H](C(=O)N(C)C)CC(=O)N(C)[C@@H](CC3CCC3)C(=O)N[C@@H]([C@@H](C)CC)C(=O)N(C)CC(=O)N(C)[C@H]3C/C=C\\CCN(C3=O)[C@@H](CC3CCCCC3)C(=O)N(C)CC(=O)N[C@@H](CCc3cc(F)c(C(F)(F)F)c(F)c3)C(=O)N2C1 [PP1469]", 1.35],
  ["CCO[C@@H]1C[C@H]2C(=O)NC3(CCC3)C(=O)N(C)[C@@H](C3CCCC3)C(=O)N(C)[C@H](C(=O)N(C)C)CC(=O)N(C)[C@@H](CC(C)C)C(=O)N[C@@H]([C@@H](C)CC)C(=O)N(C)CC(=O)N(C)[C@H]3C/C=C\\CCN(C3=O)[C@@H](Cc3ccc(F)cc3C)C(=O)N(C)CC(=O)N[C@@H](CCc3cc(F)c(Cl)c(F)c3)C(=O)N2C1 [PP1481]", 1.17]
]}

Reported log10 IC50, compound CCO[C@@H]1C[C@H]2C(=O)NC3(CCC3)C(=O)N(C)[C@@H](C3CCCC3)C(=O)N(C)[C@H](C(=O)N3CCOCC3)CC(=O)N(C)[C@@H](CC)C(=O)N[C@@H]([C@@H](C)CC)C(=O)N(C)CC(=O)N(C)[C@H]3C[C@@H](C)[C@@H](C)CN(C3=O)[C@@H](Cc3ccc(C(F)(F)F)cc3)C(=O)N(C)CC(=O)N[C@@H](CCc3cc(F)c(C(F)(F)F)c(F)c3)C(=O)N2C1 [PP1354] : ____
0.56

Recorded values, source patent US20250230193A1.
